- system.name: T1, full-length human Nectin-4 on cells (human, UniProt Q96NY8 32-510)
- T1 construct: the cell is named under assay; also called CHO-Nectin-4 cells; Nectin-4-CHO
- T1 sequence: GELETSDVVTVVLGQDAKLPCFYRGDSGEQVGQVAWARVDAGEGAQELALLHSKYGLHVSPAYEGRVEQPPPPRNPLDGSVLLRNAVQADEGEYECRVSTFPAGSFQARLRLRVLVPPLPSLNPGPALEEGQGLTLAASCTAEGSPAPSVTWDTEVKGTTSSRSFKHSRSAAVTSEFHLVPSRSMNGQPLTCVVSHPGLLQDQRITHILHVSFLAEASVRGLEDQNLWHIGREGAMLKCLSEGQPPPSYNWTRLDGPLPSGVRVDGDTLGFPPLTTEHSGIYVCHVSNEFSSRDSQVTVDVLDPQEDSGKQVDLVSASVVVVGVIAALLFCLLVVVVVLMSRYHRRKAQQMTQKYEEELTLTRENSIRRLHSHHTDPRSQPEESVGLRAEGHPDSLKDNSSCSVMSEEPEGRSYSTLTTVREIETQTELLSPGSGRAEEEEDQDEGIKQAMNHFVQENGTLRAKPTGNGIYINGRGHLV
- method: flow cytometry competition on CHO-Nectin-4 cells; competitor biotinylated human TIGIT
Hi there, I'd appreciate the recorded pEC50 for every entry that follows.
Remember the convention: pEC50 equals -log10 of concentration in molar.

pEC50 for N4_mAb 1 (antibody, human IgG1, V domains shown, Tested as chimera (murine variable regions, human IgG1/kappa constants); not shown: human IgG1 constant region (Uniprot P01857); human Kappa light chain constant region (UniProt P01834)) VH: QVQLKQSGPGLVQPSQSLSITCTVSGFSLTNYGVNWVRQPPGKGLEWLGVIWSGGSTDYNAAFISRLSISKDISKSQVFFKMNSLQADDTAKYYCAREGYDGYAMDYWGQGTSVTVSS VL: DIQMTQSPASLSVSVGETVTITCRASENIFSSLAWYQQKQGKSPQLLVYGATNLADGVPSRFSGSGSGTQYSLKINSLQSEDFGTYWCQHFWGNPWTFGGGTKLEIK is 9.04

pEC50 for N4_mAb 6 (antibody, human IgG1, V domains shown, Tested as chimera (murine variable regions, human IgG1/kappa constants); not shown: human IgG1 constant region (Uniprot P01857); human Kappa light chain constant region (UniProt P01834)) VH: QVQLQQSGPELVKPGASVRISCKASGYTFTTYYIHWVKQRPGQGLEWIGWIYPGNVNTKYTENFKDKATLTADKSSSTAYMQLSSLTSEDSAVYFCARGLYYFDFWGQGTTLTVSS VL: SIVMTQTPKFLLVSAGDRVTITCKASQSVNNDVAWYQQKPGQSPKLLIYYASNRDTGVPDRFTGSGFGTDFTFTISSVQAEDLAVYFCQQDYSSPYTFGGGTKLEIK is 9.51

pEC50 for N4_mAb 7 (antibody, human IgG1, V domains shown, Tested as chimera (murine variable regions, human IgG1/kappa constants); not shown: human IgG1 constant region (Uniprot P01857); human Kappa light chain constant region (UniProt P01834)) VH: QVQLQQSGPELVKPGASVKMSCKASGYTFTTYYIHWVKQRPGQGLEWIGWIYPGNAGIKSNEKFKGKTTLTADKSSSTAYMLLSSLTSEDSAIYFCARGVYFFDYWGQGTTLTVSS VL: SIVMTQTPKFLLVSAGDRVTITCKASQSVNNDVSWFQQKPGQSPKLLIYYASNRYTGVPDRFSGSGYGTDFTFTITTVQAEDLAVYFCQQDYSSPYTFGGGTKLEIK is 9.12

pEC50 for N4_mAb 8 (antibody, human IgG1, V domains shown, Tested as chimera (murine variable regions, human IgG1/kappa constants); not shown: human IgG1 constant region (Uniprot P01857); human Kappa light chain constant region (UniProt P01834)) VH: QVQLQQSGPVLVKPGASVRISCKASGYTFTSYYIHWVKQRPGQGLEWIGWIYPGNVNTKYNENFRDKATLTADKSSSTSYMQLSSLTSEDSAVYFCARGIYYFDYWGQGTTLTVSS VL: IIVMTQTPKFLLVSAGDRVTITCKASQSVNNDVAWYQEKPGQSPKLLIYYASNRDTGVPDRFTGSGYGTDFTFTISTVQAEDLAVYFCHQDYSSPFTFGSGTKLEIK is 8.86
